assay: qHTS of pediatric cancer cell lines to identify multiple opportunities for drug repurposing: Confirmatory screen for OHS-50 cells (AID 1347128); conditions: OHS-50 osteosarcoma cells viability; series mostly up to 45.9 µM;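 further: potency means the concentration at half of the fitted maximal effect; compound exposure lasted 48 h at 37 degrees C; nearly all actives have a fitted effect of over 55% in size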
Inconclusive results are not listed. Calls of active or inactive are those of the source. The call rests on the fitted dose curve; in most records, active means well fitted cell-killing curve with a large enough effect; inconclusive means small, poorly fitted or top-dose-only effect, or effect the other way; inactive means no such curve, though single readings can be large or run the other way.
Collected Potency values appear next to each entry.

Solved cases (3 shown):
1) COC(=O)c1nc(Cl)c(Cl)nc1N : 18.5 µM (active)
2) COC(=O)Nc1nc2ccc(C(=O)C3CC3)cc2[nH]1 : 1.31 µM (active)
3) CN(C)c1ccc(C(=C2C=CC(=[N+](C)C)C=C2)c2ccccc2)cc1 : 2.61 µM (active)

Pending compound:
[Q] Field request: Potency | item: N=C1N=C(N)c2cc3ccccc3cc21
[A] 42.7 µM (active)

----------
Assay: Drug repurposing screens with cells derived from glioblastoma tumor samples (AID 1345199); further: on the % scale 0 is the no-effect control and ±100 the full control effect; nearly all actives have a fitted effect of over 40% in size
Settings: GBM patient neurospheres viability, ATP luminescence, 48 h; at 21.2 µM (top of the series); tumour line D
Description: CD133+ cells were isolated from GBM patient biopsies and cultured as neurospheres. Neurospheres from four patients were used to screen the NCATS pharmaceutical collection (NPC) library of approved drugs and bioactive compounds. […] The neurospheres were incubated with drugs for 48 hours in 1536-well format, then assayed with an ATP content cell viability assay. […]
Records with an inconclusive call do not appear.
PROPERTY: activity, negative = cell killing (%)
Report as a plain number; the unit % is understood.

Solved cases (4 shown):
1) CN(C)CCn1nnnc1SCC1=C(C(=O)O)N2C(=O)[C@@H](NC(=O)Cc3csc(N)n3)[C@H]2SC1 : -12.5
2) COC(=O)[C@H]1[C@H]2C[C@@H]3c4[nH]c5cc(OC)ccc5c4CCN3C[C@H]2C[C@@H](OC(=O)/C=C/c2cc(OC)c(OC)c(OC)c2)[C@@H]1OC : -21.8
3) Cc1c(Nc2ncccc2C(=O)O)cccc1C(F)(F)F : -22.5
4) CC(C(=O)O)c1ccc(C(=O)c2cccs2)cc1 (stereo not given) : -0.88

Pending molecule:
[Q] Field request: activity, negative = cell killing | item: CC(C(=O)O)c1ccc(C(=O)c2ccccc2)s1 (stereo not given)
[A] 4.8

----------
Assay: Drug repurposing screens with cells derived from glioblastoma tumor samples (AID 1345199); further: on the % scale 0 is the no-effect control and ±100 the full control effect; nearly all actives have a fitted effect of over 40% in size
Conditions: GBM patient neurospheres viability, ATP luminescence, 48 h; at 20 µM (top of the series); tumour line C
Experimental: CD133+ cells were isolated from GBM patient biopsies and cultured as neurospheres. Neurospheres from four patients were used to screen the NCATS pharmaceutical collection (NPC) library of approved drugs and bioactive compounds. […] The neurospheres were incubated with drugs for 48 hours in 1536-well format, then assayed with an ATP content cell viability assay. […]
Results filed as inconclusive are left out. The source made the active and inactive calls. The call rests on the fitted dose curve; in most records, active means well fitted inhibition curve with a large enough effect; inconclusive means small, poorly fitted or top-dose-only effect; inactive means flat fitted curve, though single readings scatter.
Collected activity, negative = cell killing values appear next to each entry.

1) COc1cc(NC(C)CCCN)c2ncccc2c1 (centres undefined) : 6.33% (inactive)
2) CN(C)[C@@H]1C(=O)C(C(=O)NCN2CCCC2)=C(O)[C@@]2(O)C(=O)C3=C(O)c4c(O)cccc4[C@@](C)(O)C3C[C@@H]12 (some centres undefined) : -9.38% (inactive)
3) CN(C)CCn1nnnc1SCC1=C(C(=O)O)N2C(=O)[C@@H](NC(=O)Cc3csc(N)n3)[C@H]2SC1 : 7.42% (inactive)
4) O=C(O)Cc1ccc(-c2ccccc2)cc1 : 2.3% (inactive)
5) CCCCC[C@H](O)/C=C/[C@@H]1[C@@H](C/C=C\CCCC(=O)O)[C@@H](O)C[C@H]1O : -5.83% (inactive)
6) CC(C(=O)O)c1ccc(C(=O)c2ccccc2)s1 (centres undefined) : -11.8% (inactive)

[Q] Field request: activity, negative = cell killing | item: CCCCC1C(=O)N(c2ccccc2)N(c2ccc(O)cc2)C1=O (centres undefined)
[A] -14.9% (inactive)

[Q] Field request: activity, negative = cell killing | item: Cc1c(N)c(=O)n(-c2ccccc2)n1C
[A] -1.09% (inactive)

[Q] Field request: activity, negative = cell killing | item: C#CC1(O)CC[C@H]2[C@@H]3CCC4=CCCC[C@@H]4[C@H]3CC[C@@]21C (some centres undefined)
[A] -10.1% (inactive)
